- experiment_summary: Cytotoxicity against PHA-activated T-cells (unknown origin) assessed as inhibition of IL-2 induced cell proliferation measured after 72 hrs by MTS assay
- Format: toxicity, cell-based
property_name: IC50 at 72 h (µM)
I only need the number, in µM, no unit after it.

Consider the worked cases shown below.
>>> experimental_value("CCC[C@@H](CCO)Nc1nc(N)nc2cnn(Cc3ncc(C4=CC5(CCN(C(C)C)CC5)C4)cc3OC)c12")
16
>>> experimental_value("CCCCNc1nc(N)nc2cnn(Cc3ccc(N4CCNCC4)cc3OC)c12")
20

Then this molecule:
Qu. Using the record for CCC[C@@H](CCO)Nc1nc(N)nc2cnn(Cc3ncc(C4CCC5(CC4)CN(C4CCOCC4)C5)cc3OC)c12 , report its IC50 at 72 h.
Ans. 18
